tested-target: neuraminidase of oseltamivir-resistant pandemic 2009 H1N1 A/Hong Kong/2369/2009 [H275Y] (HK/09-H275Y) (Influenza A virus, UniProt C6KQ69)
assay-details: biochemical
measured-attribute: pIC50
Numbers only, as −log10 of the molar value.

Input line: Requested read-out: pIC50. Entry: CC(=O)N[C@H]1[C@H]([C@H](O)[C@H](O)CO)OC(C(=O)O)=C[C@@H]1N=C(N)N
Output line: 11.14
